Provide the reported TGI of each item.
- System: OVCAR-5 ovarian
- measurement protocol: NCI tumour cell line growth inhibition, 48 h

# example entries with known answers
molecule | result
CCOC(=O)/C=C/C(Br)=C(Br)/C=C/C(=O)OCC | 34.9 µM
CC1CCCc2c(CC3CC(=O)NC(=O)C3)nc(N)nc21 (stereo unspecified) | > 100 µM
COC1OC2COC(c3ccccc3)OC2C(OC(=S)c2ccccc2)C1O (stereo unspecified) | > 100 µM
CCn1c(-c2nonc2N)nc2c(C#CC(C)(C)O)ncc(OCC3CCNCC3)c21 | > 25 µM
O=C(Nc1ccccc1C(=O)O)C(=Cc1ccccc1O)NC(=O)c1ccccc1 | > 100 µM
C(=N\Nc1nnc(-c2nnc(N/N=C/c3ccccc3)o2)o1)/c1ccccc1 | > 10 µM
S=C1NC2=C(CCOc3c2ccc2ccccc32)C(c2ccc(Cl)cc2)N1 (stereo unspecified) | > 100 µM
CCOC(=O)C1=C(C)N(c2ccc(Cl)cc2)C2(O)C=CC(=O)C3C(=O)N(c4ccccc4)C(=O)C132 (stereo unspecified) | 4.15 µM
O=S1(=O)OCCOS(=O)(=O)C1S(=O)(=O)c1cccc2ccccc12 | > 100 µM
CCCCOc1nc2ccccc2cc1C1CNC(=O)c2ccccc2N1 (stereo unspecified) | 31.4 µM

Next:
Data request: For `COc1ccc(C2=C(N)c3cc(OC)ccc3C2=O)cc1` , what is its reported TGI?
Data returned: > 100 µM

----------
Provide the reported TGI of each item.
- Test system: SK-MEL-5 melanoma
- measurement protocol: NCI tumour cell line growth inhibition, 48 h
Give bare numbers, in µM.

# example entries with known answers
compound | readout unit | TGI
CCOC(=O)Nc1ccc2nc(Sc3ccc(Cl)cc3)sc2c1 | µM | 5.07
COc1cc(C2CC(c3cc(Cl)c(C)cc3O)=NN2c2ccc(S(N)(=O)=O)cc2)cc(OC)c1OC (stereo unspecified) | µM | 4.18

Dear colleague, could you send me TGI for each of the items below? Thanks.
1. Nc1ccc(Sc2ccc3c4c2cccc4c(=O)n2c4ccccc4nc32)cc1
2. Oc1[nH]c2ccccc2c1N=NC(=S)NCc1ccccn1

Data returned:
1: 13.9; 2: 12

Dear colleague, could you send me TGI for each of the items below? Thanks.
1. CC(=O)OC1CC2C(C)(C)C(=O)C=C[C@]2(C)C2CCC3(C)C(=CCC3[C@H](CO)C[C@H](O)C(=O)C(C)(C)O)[C@]12C (stereo partly specified)
2. Nc1nn2cc(-c3ccccc3)[n+](CC(=O)c3ccccc3)c2s1

Data returned:
1: 42; 2: 73.8

----------
- System: MDA-MB-231 breast
- measurement protocol: NCI tumour cell line growth inhibition, 48 h
test readout: GI50

# example entries with known answers
chemical string | assayed target | GI50
CCN1CCN(c2nc(NNC(=O)c3cccc(OC)c3)nc(N3CCN(C(c4ccccc4)c4ccccc4)CC3)n2)CC1 | MDA-MB-231 breast | 1.87 µM
Cn1cc(C2=C(c3cccc(Cl)c3)C(=O)NC2=O)c2ccccc21 | MDA-MB-231 breast | > 12.6 µM
COc1ccc(OC)c(/C=C/C(=O)c2ccc(SC)cc2)c1 | MDA-MB-231 breast | 54 µM
O=C1c2ccccc2-c2c1c1ccccc1c(=O)n2CCCNCCO | MDA-MB-231 breast | 1.5 µM
O=C(Nc1ccc(Oc2cccc(Cl)c2)c(Cl)c1)c1cccnc1 | MDA-MB-231 breast | 6.25 µM

Next:
Data request: For `Nc1cc2ccncc2c2ccccc12` , what is its reported GI50?
Data returned: 16.4 µM

Each recorded value in this set is attributed to PubChem BioAssay (NCI).
